B1: HDV Ribozyme (parent)
chain: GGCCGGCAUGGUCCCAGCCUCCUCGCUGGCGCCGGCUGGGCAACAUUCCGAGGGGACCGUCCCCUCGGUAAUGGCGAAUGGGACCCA

variants of: B1; assay: self-cleavage, relative activity (ratio to wild type); higher = more cleavage; co-transcriptional
endpoint: self-cleavage
Note: the reply should be a number with no unit written.

| mutation.key | self-cleavage |
| --- | --- |
| G5A C24A | 0.0978 |
| G39U C41G | 0.46 |
| U12C A70G | 0.692 |
| G25A G29U | 0.0941 |

# variant G1U G40U ; its self-cleavage = 0.225

# variant C18A C86U ; its self-cleavage = 0.0898

# variant C48A G76U ; its self-cleavage = 1.03

# variant C86G ; its self-cleavage = 0.983

# variant C44U G59U ; its self-cleavage = 0.854

# variant C18A G28C ; its self-cleavage = 0.095

# variant G74U A77C ; its self-cleavage = 0.123

# variant C24U A71C ; its self-cleavage = 0.453

# variant C36A C48A ; its self-cleavage = 0.259

# variant C15G A56G ; its self-cleavage = 0.712

# variant C85A ; its self-cleavage = 0.932

# variant U47C G54U ; its self-cleavage = 1.14
